- Protocol description: in vivo
- Measurement conditions: Beagle, dog, po, 0.5 mg, Oxymorphone valine carbamate AUC
Structures can show the parent of a compound that is named as a salt.
Assay metric: AUC

[
  {
    "Molecule": "CC(C)[C@H](NC(=O)Oc1ccc2c3c1OC1C(=O)CC[C@@]4(O)[C@@H](C2)N(C)CC[C@]314)C(=O)O (stereo partly shown) [Oxymorphone valine carbamate HCl]",
    "Assay metric": "AUC",
    "Value measured": "234 ng·h/mL"
  }
]

====

- Protocol description: in vivo
- Measurement conditions: Beagle, dog, po, 0.5 mg, Oxymorphone valine carbamate AUCt
Where a name gives a salt, the structure may show the parent alone.
Assay metric: AUC(0-t) (ng·h/mL)

[
  {
    "Molecule": "CC(C)[C@H](NC(=O)Oc1ccc2c3c1OC1C(=O)CC[C@@]4(O)[C@@H](C2)N(C)CC[C@]314)C(=O)O (stereo partly shown) [Oxymorphone valine carbamate HCl]",
    "Value measured": 232
  }
]
